Recorded values, source ChEMBL document CHEMBL4706575.

- target system: Nucleotide-binding oligomerization domain-containing protein 2 (Homo sapiens)
- Sequence (Q9HC29 whole entry, the tested form may be a part): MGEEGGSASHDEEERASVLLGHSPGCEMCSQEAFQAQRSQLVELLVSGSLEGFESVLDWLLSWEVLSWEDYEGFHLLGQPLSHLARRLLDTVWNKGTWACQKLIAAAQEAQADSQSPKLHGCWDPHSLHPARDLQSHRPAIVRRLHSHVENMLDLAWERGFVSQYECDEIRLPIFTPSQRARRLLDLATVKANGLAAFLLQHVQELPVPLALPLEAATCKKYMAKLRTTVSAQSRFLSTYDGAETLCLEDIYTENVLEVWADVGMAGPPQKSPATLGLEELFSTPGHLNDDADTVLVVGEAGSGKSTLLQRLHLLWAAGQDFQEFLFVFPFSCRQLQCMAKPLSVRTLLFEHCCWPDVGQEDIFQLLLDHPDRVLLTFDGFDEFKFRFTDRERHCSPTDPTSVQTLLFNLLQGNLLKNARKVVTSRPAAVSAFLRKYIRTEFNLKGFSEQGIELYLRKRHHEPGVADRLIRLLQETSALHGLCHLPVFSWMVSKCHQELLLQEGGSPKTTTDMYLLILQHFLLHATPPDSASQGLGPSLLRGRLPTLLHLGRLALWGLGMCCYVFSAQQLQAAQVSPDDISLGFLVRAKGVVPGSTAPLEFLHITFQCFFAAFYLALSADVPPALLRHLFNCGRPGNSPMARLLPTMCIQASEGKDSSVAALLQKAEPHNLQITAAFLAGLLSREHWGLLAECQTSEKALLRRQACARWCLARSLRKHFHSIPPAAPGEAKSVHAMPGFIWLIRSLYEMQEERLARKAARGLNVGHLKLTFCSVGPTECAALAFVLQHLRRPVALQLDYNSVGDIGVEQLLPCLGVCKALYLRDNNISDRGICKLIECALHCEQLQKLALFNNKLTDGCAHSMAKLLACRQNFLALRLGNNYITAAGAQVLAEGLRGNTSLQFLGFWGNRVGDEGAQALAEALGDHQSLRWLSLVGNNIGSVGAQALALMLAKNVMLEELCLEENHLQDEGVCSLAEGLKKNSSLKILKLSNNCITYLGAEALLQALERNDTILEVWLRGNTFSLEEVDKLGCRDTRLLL
- procedure summary: Antagonist activity at NOD2 in HEK-Blue hNOD2 cells assessed as inhibition of MDP-induced NFkappaB activation-mediated SEAP release preincubated for 3 hrs followed by MDP addition and measured after 20 hrs by spectrophotometric method
- Assay type: cell-based
pIC50: −log10 of the molar value.
Label yes when pIC50 is at or above 6; anything below gets no.

# compound, group label
rows = [
    ("CN(C)c1cccc(Oc2cc3c(=O)[nH]cnc3cc2NC(=O)CCCOc2ccc(C(F)(F)F)cc2)c1", "no"),
]

Query compound follows.
Query block: Decide: is the reported value of pIC50 for O=C(COCc1ccc(C(F)(F)F)cc1)Nc1cc2ncn(CC(=O)N3CCCC(F)(F)C3)c(=O)c2cc1Oc1cccc(N2CCOCC2)c1 equal to or greater than 6?
Result block: yes
